biological target: Neu5Ac(a2-6)Gal(b1-4)GlcNAc(b1-6)[Gal(b1-3)]GalNAc; assay: glycan array binding signal (z-score within array); higher = stronger binding; conditions: glycan notation: IUPAC condensed, linker removed
The entries come from a sample that favours the strongest signals as a whole.
readout type: glycan array binding signal (z-score)

Recorded results for 3 binders are shown here.
SP15308F-bth-333-19-333 (Bacteroides thetaiotaomicron) (protein) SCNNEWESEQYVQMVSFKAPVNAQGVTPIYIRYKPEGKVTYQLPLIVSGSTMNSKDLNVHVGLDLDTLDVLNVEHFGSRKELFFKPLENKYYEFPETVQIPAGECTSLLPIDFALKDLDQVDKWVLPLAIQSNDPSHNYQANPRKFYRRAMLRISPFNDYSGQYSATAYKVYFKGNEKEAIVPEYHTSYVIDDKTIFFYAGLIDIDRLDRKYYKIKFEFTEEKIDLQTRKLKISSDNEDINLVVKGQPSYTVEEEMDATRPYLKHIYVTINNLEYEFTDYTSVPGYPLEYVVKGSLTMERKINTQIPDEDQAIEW : -0.014
VLRB.aGPA.23-GCN4-biotin (Petromyzon marinus) (protein) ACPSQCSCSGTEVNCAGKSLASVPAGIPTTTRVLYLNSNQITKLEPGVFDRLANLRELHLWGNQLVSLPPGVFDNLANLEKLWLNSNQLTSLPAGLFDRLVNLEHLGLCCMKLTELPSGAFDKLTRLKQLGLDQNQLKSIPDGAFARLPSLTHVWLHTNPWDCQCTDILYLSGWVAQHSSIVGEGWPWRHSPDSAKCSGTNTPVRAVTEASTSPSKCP : -0.077
Sp8391B-bot-388-20-388 (Bacteroides ovatus) (protein) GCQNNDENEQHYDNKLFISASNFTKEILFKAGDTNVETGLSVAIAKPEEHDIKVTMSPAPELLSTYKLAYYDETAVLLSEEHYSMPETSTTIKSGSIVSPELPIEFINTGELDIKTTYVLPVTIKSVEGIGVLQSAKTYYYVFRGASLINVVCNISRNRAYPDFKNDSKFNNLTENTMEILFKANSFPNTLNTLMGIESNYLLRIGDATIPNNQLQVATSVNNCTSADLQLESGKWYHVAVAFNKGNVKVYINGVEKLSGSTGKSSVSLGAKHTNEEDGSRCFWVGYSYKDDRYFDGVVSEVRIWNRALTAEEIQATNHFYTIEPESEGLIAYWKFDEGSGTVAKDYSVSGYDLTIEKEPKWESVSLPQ : -0.211

Next item in the queue.
glycan array binding signal (z-score) measured on rCnSL-proA (Clitocybe nebularis) (protein) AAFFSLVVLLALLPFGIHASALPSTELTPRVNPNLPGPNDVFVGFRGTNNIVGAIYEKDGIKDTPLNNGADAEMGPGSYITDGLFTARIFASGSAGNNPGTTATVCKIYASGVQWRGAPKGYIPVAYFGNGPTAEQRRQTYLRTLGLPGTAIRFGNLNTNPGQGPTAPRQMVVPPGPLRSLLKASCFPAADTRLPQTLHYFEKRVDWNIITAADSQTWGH = -0.387
